# experiment.notes: Solubility test at pH=4 from phosphate buffer pH 6 0.1M, by HPLC
# Format: physicochemical
# condition.details: aqueous buffer, thermodynamic from solid; phosphate buffer pH 6 0.1M, HPLC; first figure of the S/pH cell, the pH of the sample is the second
Where a name gives a salt, the structure may show the parent alone.
Quick rule: solubility at 5 min of at least 4000 µg/mL means Condition met, below that means Condition not met.

>>> discrete_label("CCCN(CCC)CCCc1ccc(C(=O)c2c(C)cc3ccccn23)cc1 [compound 13, hydrochloride]")
"Condition not met"
>>> discrete_label("CCCCc1cc2ccccn2c1C(=O)c1ccc(CCCCN(CCCC)CCCC)cc1 [compound 20, oxalate]")
"Condition not met"
>>> discrete_label("CCCc1cc2ccccn2c1C(=O)c1ccc(CCCN(CC)CCC)cc1 [compound 29, hydrochloride]")
"Condition met"
>>> discrete_label("CCc1cc2ccccn2c1C(=O)c1ccc(CCCCN(CC)CC)cc1.O=C(O)C(=O)O [compound 5]")
"Condition met"
>>> discrete_label("CCCCc1cc2ccc(C)cn2c1C(=O)c1ccc(CCCN(CCC)CCC)cc1 [compound 43, hydrochloride]")
"Condition met"
>>> discrete_label("CCCCc1cc2ccccn2c1C(=O)c1ccc(CCCN(CCCC)CCCC)cc1 [compound 17, hydrochloride]")
"Condition met"
>>> discrete_label("CCCCN(CCCC)CCCCc1ccc(C(=O)c2c(CC)cc3ccccn23)cc1 [compound 21, oxalate]")
"Condition met"
>>> discrete_label("CCCc1cc2ccccn2c1C(=O)c1ccc(CCCCN(CC)CC)cc1.Cl [compound 6]")
"Condition met"
>>> discrete_label("CCCN(CCC)CCCc1ccc(C(=O)c2c(CC)cc3ccccn23)cc1 [compound 8, hydrochloride]")
"Condition met"
>>> discrete_label("CCCCN(CCCC)CCCc1ccc(C(=O)c2c(CC)cc3ccccn23)cc1 [compound 18, hydrochloride]")
"Condition met"
